System: Caco-2 colorectal adenocarcinoma cells
Assay Remarks: Neutral red (NR) uptake cytotoxicity assay, Caco-2
Condition Details: Homo sapiens, Caco-2, 72 h, read-out: IC50 values, Caco-2
Provide the recorded IC50 for the entries that follow.

Query: Output IC50 of C[C@H]1C(=O)CC[C@@H]2[C@]1(C)CC[C@H]1[C@@]2(C)CC[C@@]2(C)[C@@H]3CC(C)(C)CC[C@]3(C)CC[C@]12C [Compound 2, friedelanone]
Response: > 93.9 µM

Query: Output IC50 of CC1(C)C=Cc2c(O)ccc(C3COc4cc(O)cc(O)c4C3=O)c2O1 (centres unmarked) [Compound 10, glyasperin F]
Response: 17.6 µM

Query: Output IC50 of C=CC(C)(C)c1cc2c(cc1O)OCC1c3ccc(OC)cc3OC21 (centres unmarked) [Compound 13, seputhecarpan D]
Response: 10.5 µM

Query: Output IC50 of C=C(CO)C1Cc2cc3c(cc2O1)OCC1c2ccc(OC)cc2OC31 (centres unmarked) [Compound 12, seputhecarpan C]
Response: 67.3 µM

Query: Output IC50 of COc1cc(O)c2c(=O)c(O[C@H]3OC(C)[C@@H](O)C(O)[C@H]3O)c(-c3cc(O)c(O)c(O)c3)oc2c1 (some centres unmarked) [Compound 8]
Response: > 83.7 µM

Query: Output IC50 of CC1(C)C=Cc2c(cc(O)c3c(=O)c4cc5c(c(O)c4oc23)OC(C)(C)C=C5)O1 [Compound 14, rheediaxanthone A]
Response: 3.15 µM

Query: Output IC50 of C=C(C)[C@@H]1CC[C@@]2(C)C1C1CCC3[C@@]4(C)CC[C@H](O)C(C)(C)C4CC[C@@]3(C)[C@]1(C)C[C@@H]2O (stereo partly drawn) [Compound 3, 16β-hydroxylupeol]
Response: 20.8 µM

Query: Output IC50 of COc1cc(O)c2c(=O)c(O[C@H]3OC(C)[C@@H](O)C(O)[C@H]3O)c(-c3ccc(O)c(O)c3)oc2c1 (some centres unmarked) [Compound 7]
Response: > 86.6 µM

Query: Output IC50 of COc1cc2c(c(O)c1CC=C(C)C)C(=O)[C@H](O)[C@@H](c1ccc(O)cc1)O2 [Compound 9, thonningiol]
Response: 5.28 µM

Query: Output IC50 of C=C(CO)C1Cc2cc3c(cc2O1)OCC1c2ccc(O)cc2OC31 (centres unmarked) [Compound 11, seputhecarpan B]
Response: 84.4 µM

Query: Output IC50 of C=C(C)[C@@H]1CC[C@]2(C)CC[C@]3(C)[C@H](CC[C@@H]4[C@@]5(C)CC[C@H](OC(C)=O)C(C)(C)[C@@H]5CC[C@]43C)[C@@H]12 [Compound 5, lupeol acetate]
Response: > 85.5 µM

Query: Output IC50 of CCC(/C=C/[C@@H](C)C1CCC2C3=CCC4C[C@@H](O)CCC4(C)C3CCC21C)C(C)C (stereo partly drawn) [Compound 1, β-spinasterol]
Response: 69.8 µM

Query: Output IC50 of CO[C@H]1[C@H](O)[C@@H](O)[C@@H](O)[C@@H](O)[C@@H]1O [Compound 6, 5-O-methyl-myo-inositol or sequoyitol]
Response: > 206 µM

Query: Output IC50 of CC(=O)O[C@H]1CC[C@]2(C)[C@H]3CC=C4[C@@H]5CC(C)(C)CC[C@]5(C)CC[C@@]4(C)[C@]3(C)CC[C@H]2C1(C)C [Compound 4, β-amyrin acetate]
Response: > 85.5 µM
